Measured viability, T/C, listed per entry.
System: 996289-038-R-J1-PDC spheroid viability;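 also: luminescence used as a proxy for viable cell amount; spheroids exposed to compounds for seven days before viability read; percent viability relative to DMSO vehicle control as 100%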
Assay: Anticancer human tumor 996289-038-R-J1-PDC patient-derived colon adenocarcinoma cell line growth inhibition [PI3K]
Details: second compound 1 µM; first compound 3.16 µM; stronger effect = lower value; spheroids with HUVEC and MSC

- compound: "CC(Cn1ccc(-c2ccc(C#N)c(Cl)c2)n1)NC(=O)c1cc(C(C)O)[nH]n1 (stereo not given) + CC(Nc1ncnc2nc[nH]c12)c1cc2cccc(Cl)c2c(=O)n1-c1ccccc1"
  viability, T/C: "102%"
- compound: "CC1(C)CCC(Nc2ncc(C(F)(F)F)c(-c3c[nH]c4c(P(C)(C)=O)c(C#N)ccc34)n2)CN1 (stereo not given) + Cc1nc(NC(=O)N2CCCC2C(N)=O)sc1-c1ccnc(C(C)(C)C(F)(F)F)c1"
  viability, T/C: "68.1%"
- compound: "C=CC(=O)N1CCN(c2nc(=O)n(-c3c(C)ccnc3C(C)C)c3nc(-c4c(O)cccc4F)c(F)cc23)C(C)C1 (stereo not given) + CC(Nc1ccc2c(c1)OCCn1cc(N3C(=O)OCC3C(F)F)nc1-2)C(N)=O"
  viability, T/C: "62.6%"
- compound: "C=CC(=O)N1CCN(c2nc(=O)n(-c3c(C)ccnc3C(C)C)c3nc(-c4c(O)cccc4F)c(F)cc23)C(C)C1 (stereo not given) + Cc1nc(NC(=O)N2CCCC2C(N)=O)sc1-c1ccnc(C(C)(C)C(F)(F)F)c1"
  viability, T/C: "77.6%"
- compound: "CNC(=O)c1ccc(N2C(=S)N(c3ccc(C#N)c(C(F)(F)F)c3)C(=O)C2(C)C)cc1F + CC(Nc1ccc2c(c1)OCCn1cc(N3C(=O)OCC3C(F)F)nc1-2)C(N)=O"
  viability, T/C: "51.9%"
- compound: "C#Cc1c(F)ccc2cc(O)cc(-c3ncc4c(N5CC6CCC(C5)N6)nc(OCC56CCCN5CC(F)C6)nc4c3F)c12 (stereo not given) + CC(Nc1ccc2c(c1)OCCn1cc(N3C(=O)OCC3C(F)F)nc1-2)C(N)=O"
  viability, T/C: "26.4%"
- compound: "CCCS(=O)(=O)Nc1ccc(F)c(C(=O)c2c[nH]c3ncc(-c4ccc(Cl)cc4)cc23)c1F + Cc1nc(NC(=O)N2CCCC2C(N)=O)sc1-c1ccnc(C(C)(C)C(F)(F)F)c1"
  viability, T/C: "53.1%"
- compound: "CNC(=O)c1ccc(N2C(=S)N(c3ccc(C#N)c(C(F)(F)F)c3)C(=O)C2(C)C)cc1F + CC(Nc1ncnc2nc[nH]c12)c1cc2cccc(Cl)c2c(=O)n1-c1ccccc1"
  viability, T/C: "114%"
- compound: "C#Cc1c(F)ccc2cc(O)cc(-c3ncc4c(N5CC6CCC(C5)N6)nc(OCC56CCCN5CC(F)C6)nc4c3F)c12 (stereo not given) + Cc1nc(NC(=O)N2CCCC2C(N)=O)sc1-c1ccnc(C(C)(C)C(F)(F)F)c1"
  viability, T/C: "27.8%"
- compound: "CC1(C)CCC(CN2CCN(c3ccc(C(=O)NS(=O)(=O)c4ccc(NCC5CCOCC5)c([N+](=O)[O-])c4)c(Oc4cnc5[nH]ccc5c4)c3)CC2)=C(c2ccc(Cl)cc2)C1 + Cc1nc(NC(=O)N2CCCC2C(N)=O)sc1-c1ccnc(C(C)(C)C(F)(F)F)c1"
  viability, T/C: "75.8%"

Task: Recall the reported viability, T/C of Cn1nccc1Nc1nccc(-c2ccn(C(CO)c3ccc(Cl)c(F)c3)c(=O)c2)n1 (stereo not given) + CC(Nc1ccc2c(c1)OCCn1cc(N3C(=O)OCC3C(F)F)nc1-2)C(N)=O when tested on 996289-038-R-J1-PDC spheroid viability.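 Also: luminescence used as a proxy for viable cell amount; spheroids exposed to compounds for seven days before viability read; percent viability relative to DMSO vehicle control as 100%.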
Result: 45%

Task: Please tell me the measured viability, T/C for CC1(C)CCC(Nc2ncc(C(F)(F)F)c(-c3c[nH]c4c(P(C)(C)=O)c(C#N)ccc34)n2)CN1 (stereo not given) + CC(Nc1ncnc2nc[nH]c12)c1cc2cccc(Cl)c2c(=O)n1-c1ccccc1 ; system: 996289-038-R-J1-PDC spheroid viability.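 Also: luminescence used as a proxy for viable cell amount; spheroids exposed to compounds for seven days before viability read; percent viability relative to DMSO vehicle control as 100%.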
Result: 80.3%

Task: Recall the reported viability, T/C of CC(C)NCC(C(=O)N1CCN(c2ncnc3c2C(C)CC3O)CC1)c1ccc(Cl)cc1 (stereo not given) + CC(Nc1ccc2c(c1)OCCn1cc(N3C(=O)OCC3C(F)F)nc1-2)C(N)=O on 996289-038-R-J1-PDC spheroid viability and write it down.
Result: 52.5%

Task: Give the observed viability, T/C of C[C@@H](NC(=O)c1ncnc(N)c1Cl)c1ncc(C(=O)Nc2cc(C(F)(F)F)c(Cl)cn2)s1 + CC(Nc1ncnc2nc[nH]c12)c1cc2cccc(Cl)c2c(=O)n1-c1ccccc1 for 996289-038-R-J1-PDC spheroid viability.
Result: 135%
